Molecular target: human S1P1 (EDG-1) (Homo sapiens (Human), UniProt P21453)
Sequence (P21453 whole entry): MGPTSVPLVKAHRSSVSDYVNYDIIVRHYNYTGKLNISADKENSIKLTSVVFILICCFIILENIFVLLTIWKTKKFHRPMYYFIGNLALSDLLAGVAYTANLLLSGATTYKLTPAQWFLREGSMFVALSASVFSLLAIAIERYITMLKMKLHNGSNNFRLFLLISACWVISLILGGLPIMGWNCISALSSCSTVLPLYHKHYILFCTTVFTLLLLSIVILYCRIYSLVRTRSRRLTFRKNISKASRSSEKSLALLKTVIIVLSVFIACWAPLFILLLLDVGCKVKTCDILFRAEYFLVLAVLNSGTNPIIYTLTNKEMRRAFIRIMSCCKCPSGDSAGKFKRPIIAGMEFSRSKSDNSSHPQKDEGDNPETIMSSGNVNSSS
Assay: Confirmation test of antagonistic activity for human S1P1 receptor (35S-GTP binding, cell membranes)
Conditions: inhibition of 35S-GTP binding induced by S1P1 receptor selective agonist; HEK293 membranes expressing human S1P1
// values below are reported pIC50
Quick note: pIC50 means taking -log10 of the concentration in moles per liter.

Answered cases to consult:
>>> print(df.to_string())
                                   compound  assayvalue
0  CCN(Cc1cccc(CN2CC(C(=O)O)C2)c1C)c1ccc(Cl)c(C)c1        8.41
1  CCN(c1ccc(Cl)c(C)c1)C1CCc2c1ccc(C)c2CN1CC(C(=O)O)C1 (stereo not shown)        8.72
2  CCN(c1cccc(Cl)c1)C(C)c1ccc(C)c(CN2CC(C(=O)O)C2)c1 (stereo not shown)        9.05

Per the record, CCN(c1ccc(Cl)c(C(F)(F)F)c1)C(C)c1ccc(Cl)c(CN2CC(C(=O)O)C2)c1 (stereo not shown) has pIC50 of 8.82

---

Target: human S1P1 (EDG-1) (Homo sapiens (Human), UniProt P21453)
Test: Confirmation test of antagonistic activity for human S1P1 receptor (35S-GTP binding, cell membranes)
Settings: inhibition of 35S-GTP binding induced by S1P1 receptor selective agonist; HEK293 membranes expressing human S1P1
// values below are reported IC50
Note: unit nM is implicit; provide only the numeric part.

                                   compound  assayvalue
0  CCN(c1ccc(Cl)c(C)c1)C1CCc2c(CN3CC(C(=O)O)C3)cccc21 (stereo not shown) [Compound 6-3]         2.8
1  CCN(c1ccc(Cl)c(C(F)(F)F)c1)C1CCc2c1ccc(C)c2CN1CC(C(=O)O)C1 (stereo not shown) [Compound 2-8]         2.9
2  CCC(c1ccc(C)c(CN2CC(C(=O)O)C2)c1)N(CC)c1ccc(Cl)c(C)c1 (stereo not shown) [Compound 2-46]         1.9

As a next step, examine the compound that follows.
Per the record, CCN(c1ccc(Cl)c(C)c1)C1CCc2c1ccc(OC)c2CN1CC(C(=O)O)C1 (stereo not shown) [Compound 2-18] has IC50 of 4.7

---

// values below are reported pIC50
Biological target: human S1P1 (EDG-1) (Homo sapiens (Human), UniProt P21453)
Test: Confirmation test of antagonistic activity for human S1P1 receptor (35S-GTP binding, cell membranes)
Details: inhibition of 35S-GTP binding induced by S1P1 receptor selective agonist; HEK293 membranes expressing human S1P1
Quick note: pIC50 means taking -log10 of the concentration in moles per liter.

>>> df
                                   compound  readout  assayvalue
0  CCN(c1ccc(Cl)c(C)c1)C(C)c1ccc(Cl)c(CN2CC(C(=O)O)C2)c1 (centres unmarked)    pIC50        8.96
1  CCN(c1ccc(Cl)c(C(F)(F)F)c1)C(C)c1ccc(C)c(CN2CC(C(=O)O)C2)c1 (centres unmarked)    pIC50        8.92
2  CCN(c1ccc(Cl)c(C)c1)C(C)c1ccc(C(F)(F)F)c(CN2CC(C(=O)O)C2)c1 (centres unmarked)    pIC50        8.46

Record Cc1ccc2c(c1CN1CC(C(=O)O)C1)CCC2N(CCO)c1ccc(Cl)c(C(F)(F)F)c1 (centres unmarked) ; system human S1P1 (EDG-1) (Homo sapiens (Human), UniProt P21453); pIC50 = 8.47

Record Cc1ccc2c(c1CN1CC(C(=O)O)C1)CCC2N(C)c1ccc(Cl)c(C(F)(F)F)c1 (centres unmarked) ; system human S1P1 (EDG-1) (Homo sapiens (Human), UniProt P21453); pIC50 = 8.60

Record CCC(c1cccc(CN2CC(C(=O)O)C2)c1)N(CC)c1ccc(Cl)c(C)c1 (centres unmarked) ; system human S1P1 (EDG-1) (Homo sapiens (Human), UniProt P21453); pIC50 = 8.17

Record `CCN(Cc1cccc(CN2CC(C(=O)O)C2)c1)c1ccc(Cl)c(C)c1` ; system human S1P1 (EDG-1) (Homo sapiens (Human), UniProt P21453); pIC50 = 8.05

Record CCN(c1ccc(Cl)c(C)c1)C1CCc2c1ccc(F)c2CN1CC(C(=O)O)C1 (centres unmarked) ; system human S1P1 (EDG-1) (Homo sapiens (Human), UniProt P21453); pIC50 = 8.60

---

Target: human S1P1 (EDG-1) (Homo sapiens (Human), UniProt P21453)
Experiment: Confirmation test of antagonistic activity for human S1P1 receptor (35S-GTP binding, cell membranes)
Settings: inhibition of 35S-GTP binding induced by S1P1 receptor selective agonist; HEK293 membranes expressing human S1P1
// values below are reported pIC50
Quick note: pIC50 means taking -log10 of the concentration in moles per liter.

In [3]: df
Out[3]:
                                   molecule  readout  assayvalue
0  CCC(c1ccc(C)c(CN2CC(C(=O)O)C2)c1)N(CC)c1ccc(Cl)c(C(F)(F)F)c1 (centres unmarked)    pIC50        9.10
1  CCN(c1ccc(Cl)c(C(F)(F)F)c1)C1CCc2c(CN3CC(C(=O)O)C3)cccc21 (centres unmarked)    pIC50        8.43
2  Cc1cc(N(C)C2CCc3c(CN4CC(C(=O)O)C4)cccc32)ccc1Cl (centres unmarked)    pIC50        7.56
3  Cc1ccc(C(C)N(C)c2ccc(Cl)c(C(F)(F)F)c2)cc1CN1CC(C(=O)O)C1 (centres unmarked)    pIC50        8.17
4  Cc1cc(N(C)Cc2cccc(CN3CC(C(=O)O)C3)c2)ccc1Cl    pIC50        8.12
5  CCN(c1ccc(Cl)c(C)c1)C(C)c1ccc(F)c(CN2CC(C(=O)O)C2)c1 (centres unmarked)    pIC50        8.24

Per the record, `CCN(c1ccc(Cl)c(C)c1)[C@H](C)c1cccc(CN2CC(C(=O)O)C2)c1` has pIC50 of 8.92

Per the record, CCN(c1ccc(Cl)c(C(F)(F)F)c1)C(CO)c1ccc(C)c(CN2CC(C(=O)O)C2)c1 (centres unmarked) has pIC50 of 8.60

---

Biological target: UniProtKB P21453
Experiment: Confirmation test of antagonistic activity for human S1P1 receptor (35S-GTP binding, cell membranes)
Conditions: inhibition of 35S-GTP binding induced by S1P1 receptor selective agonist; HEK293 membranes expressing human S1P1
pIC50: −log10 of the molar value.
Param threshold (8) applies to pIC50; output Criterion met when value >= threshold, Criterion not met when value < threshold.

>>> print(df.to_string())
                                   compound    answerlabel
0  CCN(Cc1ccc(C)c(CN2CC(C(=O)O)C2)c1C)c1ccc(Cl)c(C)c1  Criterion met
1  CCN(c1cc(C(F)(F)F)cc(C(F)(F)F)c1)C(C)c1ccc(C)c(CN2CC(C(=O)O)C2)c1 (centres unmarked)  Criterion met

# input Say whether `CCN(Cc1ccc(C)c(CN2CC(C(=O)O)C2)c1)c1ccc(Cl)c(C)c1` shows pIC50 of 8 or more.
# output Criterion met

# input Say whether CCCN(c1ccc(Cl)c(C)c1)C(C)c1ccc(C)c(CN2CC(C(=O)O)C2)c1 (centres unmarked) shows pIC50 of 8 or more.
# output Criterion met

# input Say whether C=Cc1ccc(C(C)N(CC)c2ccc(Cl)c(C(F)(F)F)c2)cc1CN1CC(C(=O)O)C1 (centres unmarked) shows pIC50 of 8 or more.
# output Criterion met

# input Say whether CCN(c1ccc(Cl)c(C)c1)C1CCc2c(CN3CC(C(=O)O)C3)cc(F)cc21 (centres unmarked) shows pIC50 of 8 or more.
# output Criterion met

# input Say whether CCN(c1ccc(Cl)c(C(F)(F)F)c1)C(C)c1ccc(C(F)(F)F)c(CN2CC(C(=O)O)C2)c1 (centres unmarked) shows pIC50 of 8 or more.
# output Criterion met

# input Say whether Cc1cc(NC(C)c2ccc(C)c(CN3CC(C(=O)O)C3)c2)ccc1Cl (centres unmarked) [Comparative Example 1, reference compound] shows pIC50 of 8 or more.
# output Criterion not met

# input Say whether Cc1cc(N(C)C(C)c2ccc(C)c(CN3CC(C(=O)O)C3)c2)ccc1Cl (centres unmarked) shows pIC50 of 8 or more.
# output Criterion not met

# input Say whether Cc1cc(CN2CC(C(=O)O)C2)c2c(c1)C(N(C)c1ccc(Cl)c(C)c1)CC2 (centres unmarked) shows pIC50 of 8 or more.
# output Criterion not met

# input Say whether CCN(c1ccc(Cl)c(C)c1)C(C)c1ccc(C)c(CN2CC(C(=O)O)C2)c1 (centres unmarked) shows pIC50 of 8 or more.
# output Criterion met

# input Say whether CCN(c1ccc(Cl)cc1)C(C)c1ccc(C)c(CN2CC(C(=O)O)C2)c1 (centres unmarked) shows pIC50 of 8 or more.
# output Criterion met

Measured values drawn from patent US9718771B2 for this set.
